- system.tested: Rac GTPase-activating protein 1 (Homo sapiens, UniProt Q9H0H5)
- Sequence (Q9H0H5 whole entry): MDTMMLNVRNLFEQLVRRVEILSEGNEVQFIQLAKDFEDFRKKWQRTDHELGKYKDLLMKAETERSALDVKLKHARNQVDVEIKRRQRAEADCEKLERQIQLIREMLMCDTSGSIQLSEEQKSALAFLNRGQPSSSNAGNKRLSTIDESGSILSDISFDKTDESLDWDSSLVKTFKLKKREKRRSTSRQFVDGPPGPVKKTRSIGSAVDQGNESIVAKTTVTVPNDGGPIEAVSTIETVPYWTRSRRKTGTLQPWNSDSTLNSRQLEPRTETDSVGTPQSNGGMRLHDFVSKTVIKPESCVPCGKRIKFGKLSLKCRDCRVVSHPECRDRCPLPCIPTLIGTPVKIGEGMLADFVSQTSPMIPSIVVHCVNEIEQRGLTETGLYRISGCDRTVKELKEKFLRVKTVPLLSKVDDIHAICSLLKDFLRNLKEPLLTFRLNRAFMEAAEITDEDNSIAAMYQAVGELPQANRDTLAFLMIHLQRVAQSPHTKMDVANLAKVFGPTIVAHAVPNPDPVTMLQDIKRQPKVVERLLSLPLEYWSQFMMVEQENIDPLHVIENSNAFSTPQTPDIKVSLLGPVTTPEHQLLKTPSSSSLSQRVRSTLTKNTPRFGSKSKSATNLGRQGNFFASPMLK
- procedure.details: MgcRacGAP GTPase-activating activity inhibitors, confirmation, biochemical, ADP Hunter fluorescence, primary and confirmatory (AID 624330)
- Type: functional
Where a name gives a salt, the structure may show the parent alone. Calls of active or inactive are those of the source. How the calls were made is not given here.
measured.attribute: IC50

Examples with answers:
- c1ccc(-c2ccccc2OCCCCn2ccnc2)cc1: 127 µM (active)
- O=C1/C(=C\c2ccccc2)CN(C(=O)CCN2CCCCC2)C/C1=C/c1ccccc1: 84.9 µM (active)

Now look at this one.
stdin: Give the measured IC50 for O=C1c2c(O)ccc(O)c2C(=O)c2c(NCCNCCO)ccc(NCCNCCO)c21 [MITOXANTRONE HYDROCHLORIDE]
stdout: 14.8 µM (active)

These entries and their values trace back to ChEMBL document CHEMBL1201862.
